- System: OVCAR-4 ovarian
- experimental_protocol: NCI-60 one-dose screen, 48 h
- assay_conditions: 10 µM unless noted
- Experimental: Growth inhibition of the OVCAR-4 human tumor cell line is measured as a screen for anti-cancer activity. Cells are grown in 96 well plates and exposed to the test compound for 48 hours. Compounds are tested at a single concentration, which is 10^-5 M for most compounds. The reported endpoint is percent growth (GI% or GIPRCNT), where numbers from 0 - 100% represent growth inhibition, and numbers from -100% - 0 represent cell death. For example, a value of 40 represents 60% growth inhibition. […]
About 83,000 compounds went through this panel and 20% of them were active in at least one assay; those are over-represented in the sample as a whole. The source made the active and inactive calls. The calls were made as follows: active = growth percent below 10; inactive = the rest.
Pick from 1 (active), -1 (inactive) when you respond.

Here are 10 compounds together with their reported answers.
>>> assigned_class("Cn1c(-c2c(N)n(Cc3ccc(C(F)(F)F)cc3)c3nc(C#N)c(C#N)nc23)nc2ccccc21")
-1
>>> assigned_class("CC/C=C/C/C=C/C/C=C/C/C=C/C/C=C/C/C=C/CCC(=O)Nc1ccn([C@@H]2O[C@H](CO)[C@@H](O)C2(F)F)c(=O)n1")
-1
>>> assigned_class("CN1CCN(CCCOc2ccc3nc(Nc4ccc(F)c(F)c4)ccc3c2)CC1")
-1
>>> assigned_class("CCCCCCCCCOc1c(OC)cc(C2CC(=O)Nc3c2c(C)nn3-c2nc3ccccc3[nH]2)cc1OC (stereo not given)")
1
>>> assigned_class("CCOC(=O)c1csc(NC(=O)COc2cccc(/C=C3\\Oc4cc(OC)ccc4C3=O)c2)n1")
-1
>>> assigned_class("COc1cc(C2CC(c3ccc(Nc4ccnc5cc(Cl)ccc45)cc3)=NN2C=O)cc(OC)c1OC (stereo not given)")
-1
>>> assigned_class("O=S(=O)(Nc1cccc(Cl)c1)c1ccc(-c2cnc(C3CC3)o2)cc1")
-1
>>> assigned_class("COc1ccc(-c2cc(-c3cc(OC)c(OC)c(OC)c3)c(C#N)c(N3CCOCC3)n2)cc1O")
-1
>>> assigned_class("O=c1c2c3c(sc2nc(N/N=C/c2ccc(Br)cc2)n1Cc1ccccc1)CCCC3")
-1
>>> assigned_class("COc1cc(/C=C/C(=O)c2cccc(-n3cc(-c4ccccc4)[nH]c3=O)c2)ccc1O")
-1

[ask] What outcome does the record of this test show for "Cn1c(I)c(C#C[Si](C)(C)C)c(=O)n(C(=O)c2ccccc2)c1=O" ?
[reply] -1

* * *

- System: NCI-H226 lung
- experimental_protocol: NCI-60 one-dose screen, 48 h (100 = growth as untreated, 0 = no growth, -100 = all killed)
- assay_conditions: 10 µM unless noted
The panel holds about 83,000 compounds, 20% with a hit somewhere; the sample as a whole holds those more often.
Listed compounds paired with reported growth
Give the value in % but do not write % after it.

// worked examples, growth included
>>> assay_result("O=C1/C(=C/c2ccccc2)CCc2nc3ccccc3c(/C=C/c3ccc(Cl)cc3)c21")
92.3
>>> assay_result("COc1cc(/C=C/C(=O)c2c(C)nc3ccccc3c2/C=C/c2ccc(C)cc2)cc(OC)c1OC")
28.9
>>> assay_result("N[C@@H](CCCCNCC(=O)O)C(=O)O")
98.4

[ask] GET /values?readout=growth&system=NCI-H226 lung&item= "NC1=NCc2nc3ccccc3c(=O)n2C1"
[reply] 94.9

[ask] GET /values?readout=growth&system=NCI-H226 lung&item= "CCN(CC)Cc1cccc(C(=O)OC)c1"
[reply] 90.2

[ask] GET /values?readout=growth&system=NCI-H226 lung&item= "COC(=O)[C@H](CSC)N(C)C(=O)[C@@H]1CSSC[C@@H](NC(=O)c2nc3ccccc3cc2O)C(=O)NCC(=O)N1C"
[reply] 87.5
